Hey, just so you know, these numbers are from patent US20180162944A1.

For each record, write down the corresponding EC50.
Target: T1, human PD-L1 expressed on cells (CHO / CHO-K1 cells transfected with full-length human PD-L1); native PD-L1 on … (human, UniProt Q9NZQ7 19-290)
T1 construct: whole, on cells; also called PD-L1 expressing CHO cell; PD-L1 transfected CHO cells
T1 sequence (Q9NZQ7 19-290): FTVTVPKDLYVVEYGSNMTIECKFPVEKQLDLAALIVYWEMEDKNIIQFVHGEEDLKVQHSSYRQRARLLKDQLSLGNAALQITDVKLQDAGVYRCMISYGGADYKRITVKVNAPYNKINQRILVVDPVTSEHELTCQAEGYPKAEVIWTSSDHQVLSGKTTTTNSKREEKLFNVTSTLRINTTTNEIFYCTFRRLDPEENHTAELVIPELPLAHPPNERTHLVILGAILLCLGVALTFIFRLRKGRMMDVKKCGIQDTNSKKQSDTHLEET
Experiment: FACS, native PD-L1 on human monocyte-derived dendritic cells, MFI against antibody concentration
Answers are plain numbers, in nM.

1. 2.74.15.hAb6 (antibody, V domains shown, Humanized antibody with a human constant region of IgG4 isotype) VH: QVQLQESGPGLVKPSETLSLTCTVTGYSITSGYIWHWIRQPAGKGLEWIGYIHYSGTTDFNPSLESRVTISVDTSKNQFSLKLSSVTAADTAVYYCAREGRSYGGFAYWGQGTLVTVSS VL: DIQMTQSPSSLSASVGDRVTITCKASQSVSNGVAWYQQKPGKVPKLLIYYASNRFTGVPSRFSGSGSGTDFTLTISSLQPEDVATYYCQQDYSSPFTFGQGTKLEIK :: 2.39
2. 2.74.15.hAb8 (antibody, V domains shown, Humanized antibody with a human constant region of IgG4 isotype) VH: QVQLQESGPGLVKPSETLSLTCTVSGYSITSGYIWHWIRQPPGKGLEWIGYIHYSGTTDFNPSLESRVTISVDTSKNQFSLKLSSVTAADTAVYYCAREGRSYGGFAYWGQGTLVTVSS VL: DIQMTQSPSSLSASVGDRVTITCKASQSVSNGVAWYQQKPGKVPKLLIYYASNRFTGVPSRFSGSGSGTDFTLTISSLQPEDVATYYCQQDYSSPFTFGQGTKLEIK :: 2.52
3. 2.74.15.hAb4 (antibody, V domains shown, Humanized antibody with a human constant region of IgG4 isotype) VH: QVQLQESGPGLVKPSETLSLTCTVSGYSITSGYIWHWIRQPPGKGLEWIGYIHYSGTTDFNPSLESRVTISVDTSKNQFSLKLSSVTAADTAVYYCAREGRSYGGFAYWGQGTLVTVSA VL: SFVMTQSPSSLSASVGDRVTITCKASQSVSNGVAWYQQKPGKVPKLLIYYASNRFTGVPSRFSGSGSGTDFTLTISSLQPEDVATYYCQQDYSSPFTFGSGTELEIK :: 1.82
4. 2.74.15.hAb5 (antibody, V domains shown, Humanized antibody with a human constant region of IgG4 isotype) VH: QVQLQESGPGLVKPSETLSLTCTVTGYSITSGYIWHWIRQPAGKGLEWIGYIHYSGTTDFNPSLESRVTISVDTSKNQFSLKLSSVTAADTAVYYCAREGRSYGGFAYWGQGTLVTVSS VL: DIQLTQSPSFLSASVGDRVTITCKASQSVSNGVAWYQQKPGKAPKLLIYYASNRFTGVPSRFSGSGSGTEFTLTISSLQPEDFATYYCQQDYSSPFTFGQGTKLEIK :: 2

What does the data say about its EC50? Entry: 2.74.15.hAb7 (antibody, V domains shown, Humanized antibody with a human constant region of IgG4 isotype) VH: QVQLQESGPGLVKPSETLSLTCTVSGYSITSGYIWHWIRQPPGKGLEWIGYIHYSGTTDFNPSLESRVTISVDTSKNQFSLKLSSVTAADTAVYYCAREGRSYGGFAYWGQGTLVTVSS VL: DIQLTQSPSFLSASVGDRVTITCKASQSVSNGVAWYQQKPGKAPKLLIYYASNRFTGVPSRFSGSGSGTEFTLTISSLQPEDFATYYCQQDYSSPFTFGQGTKLEIK
2.53
